These data points were gathered from patent US20250346569A1.

- Assay System: mouse TRPM3α2 (mTRPM3) ion channel (Mus musculus, UniProt J9SQF3)
- Construct: expressed in transfected cells; host or cells: flip-in HEK293
- Sequence (J9SQF3 1-1709 isoform J9SQF3-12): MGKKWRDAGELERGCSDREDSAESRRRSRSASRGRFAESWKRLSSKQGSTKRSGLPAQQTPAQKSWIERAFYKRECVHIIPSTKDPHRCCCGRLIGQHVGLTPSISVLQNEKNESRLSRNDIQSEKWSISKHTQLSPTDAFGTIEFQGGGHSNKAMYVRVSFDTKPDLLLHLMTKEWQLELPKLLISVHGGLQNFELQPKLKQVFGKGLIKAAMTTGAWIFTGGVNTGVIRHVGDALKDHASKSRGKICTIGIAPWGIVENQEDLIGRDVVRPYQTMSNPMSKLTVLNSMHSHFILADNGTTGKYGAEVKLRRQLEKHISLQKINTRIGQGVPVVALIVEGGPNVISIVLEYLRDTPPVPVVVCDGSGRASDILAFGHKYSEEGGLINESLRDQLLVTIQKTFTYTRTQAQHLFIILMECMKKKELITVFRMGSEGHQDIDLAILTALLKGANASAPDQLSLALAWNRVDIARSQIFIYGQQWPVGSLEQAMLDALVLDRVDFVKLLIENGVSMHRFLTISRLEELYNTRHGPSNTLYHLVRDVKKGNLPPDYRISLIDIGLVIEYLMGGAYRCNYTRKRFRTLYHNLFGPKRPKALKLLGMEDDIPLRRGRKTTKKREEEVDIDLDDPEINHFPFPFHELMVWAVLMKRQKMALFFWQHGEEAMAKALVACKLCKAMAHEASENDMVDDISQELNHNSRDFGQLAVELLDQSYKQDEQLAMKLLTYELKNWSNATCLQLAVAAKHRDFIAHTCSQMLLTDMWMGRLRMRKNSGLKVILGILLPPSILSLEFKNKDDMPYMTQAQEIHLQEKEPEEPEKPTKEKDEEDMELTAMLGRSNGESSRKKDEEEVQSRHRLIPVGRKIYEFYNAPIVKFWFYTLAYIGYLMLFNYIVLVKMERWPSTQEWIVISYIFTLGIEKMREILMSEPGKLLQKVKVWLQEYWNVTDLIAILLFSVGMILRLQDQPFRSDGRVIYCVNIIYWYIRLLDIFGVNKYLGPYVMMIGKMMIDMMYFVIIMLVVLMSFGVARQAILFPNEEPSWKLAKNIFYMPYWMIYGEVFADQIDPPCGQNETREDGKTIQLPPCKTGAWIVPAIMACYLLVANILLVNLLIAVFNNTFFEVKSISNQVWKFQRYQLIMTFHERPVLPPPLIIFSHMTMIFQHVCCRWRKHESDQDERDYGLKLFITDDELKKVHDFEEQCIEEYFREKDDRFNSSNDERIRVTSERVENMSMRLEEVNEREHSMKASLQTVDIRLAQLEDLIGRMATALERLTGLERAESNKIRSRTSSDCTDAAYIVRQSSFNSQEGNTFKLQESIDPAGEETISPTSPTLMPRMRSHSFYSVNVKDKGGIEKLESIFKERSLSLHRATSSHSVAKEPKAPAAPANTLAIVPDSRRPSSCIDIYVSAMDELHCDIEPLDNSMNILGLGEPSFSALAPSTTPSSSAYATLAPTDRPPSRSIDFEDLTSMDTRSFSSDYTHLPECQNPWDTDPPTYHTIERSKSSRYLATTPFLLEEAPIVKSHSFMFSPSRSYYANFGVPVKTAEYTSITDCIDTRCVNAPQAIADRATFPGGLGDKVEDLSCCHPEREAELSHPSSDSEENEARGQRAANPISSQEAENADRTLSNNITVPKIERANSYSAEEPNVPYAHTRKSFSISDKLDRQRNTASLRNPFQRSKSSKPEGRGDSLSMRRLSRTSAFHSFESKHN
- Assay Info: Monitoring the TRPM3 ion channel driven Ca2+ uptake (Fluo-4 AM assay)
- Type: cell-based
- Cond: TRPM3 overexpressing flip-in HEK293 cells, channel stimulated with Pregnenolone sulfate (PS) 50 μM
pIC50: −log10 of the molar value.
Observation Type: pIC50

Here is how some molecules turned out for pIC50.
>>> reported_result("Cc1sc2ccc(OCc3cccnc3O)cc2c1C(=O)N[C@@H](CO)C(N)=O [Cpd 054]")
"4.70 to 6.00"
>>> reported_result("Cc1sc2ccc(OCc3ccccc3F)cc2c1C(=O)NC1CCNCC1(F)F (single isomer, unassigned) [Cpd 095 - En1]")
"4.70 to 6.00"
>>> reported_result("Cc1sc2ccc(OCc3cccnc3O)cc2c1C(=O)NC(C)(C)C(N)=O [Cpd 066]")
"> 6.00"
>>> reported_result("Cc1sc2ccc(OCc3ccccc3F)cc2c1C(=O)NC1(CO)CCOCC1 [Cpd 081]")
"> 6.00"
>>> reported_result("Cc1ncsc1COc1ccc2sc(C)c(C(=O)NC3CCNC3=O)c2c1 (stereo not drawn) [Cpd 041]")
"> 6.00"

Would you kindly share the measured pIC50 for Cc1sc2ccc(OCc3ccccc3F)cc2c1C(=O)N[C@H](C)C(N)=O [Cpd 002] ?
> 6.00

Would you kindly share the measured pIC50 for Cc1sc2ccc(OCc3ccccn3)cc2c1C(=O)N[C@@H](C)C(N)=O [Cpd 008] ?
> 6.00

Would you kindly share the measured pIC50 for Cc1sc2ccc(OCc3ccccc3)cc2c1C(=O)NCC1CCC(=O)N1 (stereo not drawn) [Cpd 102] ?
4.70 to 6.00

Would you kindly share the measured pIC50 for Cc1sc2ccc(OCc3ccccn3)cc2c1C(=O)NC1(C(N)=O)COC1 [Cpd 088] ?
> 6.00
